experimental details: Pharmacokinetics assay in BALB/C nude mice after intragastrical administration
Format: in vivo
condition context: female, mouse, po, 3 mg/kg, plasma, read-out: Mean Residence Time MRT
value kind: MRT (h)

CCn1cc(-c2ccc3c(c2)C[C@@H](C)N(c2ccc(C(C)C)cc2)[C@@H]3c2ccc(/C=C/C(=O)O)cc2)cn1 [Example 8]	5.26
CC1Cc2cc(-c3cnn(C)c3)ccc2C(c2ccc(/C=C/C(=O)O)cc2)N1c1ccc(C2CC2)cc1 (stereo not shown) [Example 10]	7.08
CCn1cc(-c2ccc3c(c2)C[C@@H](C)N(c2ccc(C4CC4)cc2)[C@@H]3c2ccc(/C=C/C(=O)O)cc2)cn1 [Example 14]	6.73
CC(C)c1ccc(N2[C@H](c3c(F)cc(/C=C/C(=O)O)cc3F)c3ccc(-c4cnn(C)c4)cc3C[C@H]2C)cc1 [Example 39]	7.02

* * *

assayed target: ER (estrogen receptor) (Homo sapiens)
Construct: MCF-7/ERE-luciferase monoclonal cells were selected by transfection of MCF-7
Sequence (P03372 1-595): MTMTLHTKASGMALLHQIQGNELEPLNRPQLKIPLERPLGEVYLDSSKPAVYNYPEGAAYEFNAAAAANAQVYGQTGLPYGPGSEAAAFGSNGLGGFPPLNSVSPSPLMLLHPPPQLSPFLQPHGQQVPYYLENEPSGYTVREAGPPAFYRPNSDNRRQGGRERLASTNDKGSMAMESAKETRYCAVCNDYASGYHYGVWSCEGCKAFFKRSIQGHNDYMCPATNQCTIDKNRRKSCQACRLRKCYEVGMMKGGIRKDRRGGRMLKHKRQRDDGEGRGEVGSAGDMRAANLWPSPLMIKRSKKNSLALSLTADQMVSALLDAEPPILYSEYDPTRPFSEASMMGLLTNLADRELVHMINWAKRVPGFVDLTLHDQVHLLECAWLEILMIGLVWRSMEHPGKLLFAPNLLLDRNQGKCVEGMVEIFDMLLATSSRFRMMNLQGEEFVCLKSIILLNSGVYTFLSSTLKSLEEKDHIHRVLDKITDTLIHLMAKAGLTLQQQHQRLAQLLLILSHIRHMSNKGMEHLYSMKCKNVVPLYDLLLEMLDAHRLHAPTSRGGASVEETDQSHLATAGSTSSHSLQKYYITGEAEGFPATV
experimental details: Inhibition of the binding of estrogen (E) to estrogen receptor (ER), MCF-7/ERE-luciferase reporter cells
condition context: MCF-7/ERE-luciferase cells, 0.1 nM estradiol, 24 hours, chemiluminescence; read-out: IC50 value of inhibition effect on the binding of E to ER
value kind: IC50 (nM)

Here's what some known entries look like.
CC1Cc2cc(-c3cnn(C(F)F)c3)ccc2C(c2ccc(/C=C/C(=O)O)cc2)N1c1ccc(C2CC2)cc1 (stereo not shown)	1.26
CC1Cc2cc(-c3cnn(C)c3)ccc2C(c2ccc(/C=C/C(=O)O)cc2)N1c1ccc(C2CC2)cc1 (stereo not shown)	1.07
CCc1ccc(N2[C@H](c3ccc(/C=C/C(=O)O)cc3)c3ccc(-c4cnn(C)c4)cc3C[C@H]2C)cc1	1.71
CCn1cc(-c2ccc3c(c2)C[C@@H](C)N(c2ccc(C4CC4)cc2)[C@@H]3c2c(F)cc(/C=C/C(=O)O)cc2F)cn1	0.74
CCc1ccc(N2C(C)Cc3cc(-c4cnn(CC)c4)ccc3C2c2ccc(/C=C/C(=O)O)cc2)c(Cl)c1 (stereo not shown)	0.85
Cc1ncc(-c2ccc3c(c2)CC(C)N(c2ccc(C4CC4)cc2)C3c2ccc(/C=C/C(=O)O)cc2)s1 (stereo not shown)	1

a = CC(C)c1ccc(N2C(C)Cc3cc(-c4cn[nH]c4)ccc3C2c2ccc(/C=C/C(=O)O)cc2)cc1 (stereo not shown)
b = CCn1cc(-c2ccc3c(c2)CC(C)N(c2ccc(C4CC4)cc2Cl)C3c2ccc(/C=C/C(=O)O)cc2)cn1 (stereo not shown)
[in] Min IC50? a | b State the label of the item chosen.
[out] a

1 = Cc1ccc(N2C(C)Cc3cc(-c4cnn(C)c4)ccc3C2c2ccc(/C=C/C(=O)O)cc2)c(C)c1 (stereo not shown)
2 = COc1ccc(N2C(C)Cc3cc(-c4cnn(C)c4)ccc3C2c2ccc(/C=C/C(=O)O)cc2)cc1 (stereo not shown)
[in] 1 or 2 : whose IC50 is greater? State the label of the item chosen.
[out] 2
